molecular target: SLCO2B1-312Arg (Homo sapiens, UniProt O94956); assay: DHEAS uptake assay in LNCaP cells transfected with SLCO2B1-312Arg; details: read-out: best-fit Km for DHEAS uptake; SLCO2B1-312Arg variant, nonlinear regression
Sequence (O94956 whole entry R312Q): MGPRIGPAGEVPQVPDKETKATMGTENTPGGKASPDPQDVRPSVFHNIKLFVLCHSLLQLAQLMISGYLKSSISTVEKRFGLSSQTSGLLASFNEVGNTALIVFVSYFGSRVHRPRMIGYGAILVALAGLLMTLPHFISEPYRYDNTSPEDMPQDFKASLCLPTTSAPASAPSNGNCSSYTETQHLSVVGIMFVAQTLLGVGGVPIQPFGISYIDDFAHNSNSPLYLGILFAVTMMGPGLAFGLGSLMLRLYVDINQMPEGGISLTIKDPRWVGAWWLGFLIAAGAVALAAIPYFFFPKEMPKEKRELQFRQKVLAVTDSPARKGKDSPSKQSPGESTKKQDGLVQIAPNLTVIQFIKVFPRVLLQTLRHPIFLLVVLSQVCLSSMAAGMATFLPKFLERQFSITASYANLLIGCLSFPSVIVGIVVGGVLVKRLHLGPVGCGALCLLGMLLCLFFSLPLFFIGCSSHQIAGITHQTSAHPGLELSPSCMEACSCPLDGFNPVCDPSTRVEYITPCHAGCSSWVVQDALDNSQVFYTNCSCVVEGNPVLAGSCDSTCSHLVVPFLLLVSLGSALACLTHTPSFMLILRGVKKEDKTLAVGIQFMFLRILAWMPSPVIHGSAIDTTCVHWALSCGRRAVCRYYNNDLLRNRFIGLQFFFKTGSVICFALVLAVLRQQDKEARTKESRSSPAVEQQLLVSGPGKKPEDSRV
RECORDED_ENDPOINT: Km (µM)
Answers are plain numbers, in µM.

Query C[C@]12CC[C@H](OS(=O)(=O)O)CC1=CC[C@@H]1[C@@H]2CC[C@]2(C)C(=O)CC[C@@H]12 [DHEAS, sulfated dehydroepiandrosterone] yields Km of 13.7
